System: NCI-H1651
Test Summary: relative viability (nuclei count vs DMSO), 5 days (fraction); higher = more cells survive
Test Settings: first compound 0.01 µM
Value Kind: relative viability
Reply briefly: the number, and no unit.

Answered cases to consult:
{"columns": ["Molecule", "relative viability"],
 "data": [
  ["CCN(CC)CCCCNc1ncc2cc(-c3cc(OC)cc(OC)c3)c(NC(=O)NC(C)(C)C)nc2n1 + CCNC(=O)c1noc(-c2cc(C(C)C)c(O)cc2O)c1-c1ccc(CN2CCOCC2)cc1 [Luminespib] (partner 0.01 µM)", 0.886],
  ["CCN(CC)CCCCNc1ncc2cc(-c3cc(OC)cc(OC)c3)c(NC(=O)NC(C)(C)C)nc2n1 + O=C(CCCCCCC(=O)Nc1ccccc1)NO [Vorinostat] (partner 1 µM)", 0.541],
  ["CCN(CC)CCCCNc1ncc2cc(-c3cc(OC)cc(OC)c3)c(NC(=O)NC(C)(C)C)nc2n1 + CC(=O)c1c(C)c2cnc(Nc3ccc(N4CCNCC4)cn3)nc2n(C2CCCC2)c1=O [Palbociclib] (partner 0.5 µM)", 0.539],
  ["O=c1cc(N2CCOCC2)oc2c(-c3cccc4c3sc3ccccc34)cccc12 + NC(=O)Nc1cc(-c2cccc(F)c2)sc1C(=O)N[C@H]1CCCNC1 [AZD7762] (partner 0.2 µM)", 0.494]
]}

Now look at this entry.
// map O=c1cc(N2CCOCC2)oc2c(-c3cccc4c3sc3ccccc34)cccc12 + COc1cccc2cc(-c3nc([C@H]4CC[C@H](C(=O)O)CC4)n4ncnc(N)c34)[nH]c12 [OSI-027] (partner 0.5 µM) to recorded relative viability (system: NCI-H1651)
0.593

---

# relative viability annotations
Test system: NCI-H1793
Test Summary: relative viability (nuclei count vs DMSO), 5 days (fraction); higher = more cells survive
Test Settings: first compound 0.8 µM
Reply briefly: the number, and no unit.

Answered cases to consult:
{"columns": ["Compound", "relative viability"],
 "data": [
  ["COc1nc(C)cnc1NS(=O)(=O)c1cccnc1-c1ccc(-c2nnco2)cc1 [Zibotentan] + O=C(CCCCCCC(=O)Nc1ccccc1)NO [Vorinostat] (partner 1 µM)", 0.925],
  ["O=c1cc(-c2cccc3c2Sc2ccccc2S3)oc(N2CCOCC2)c1 + CS(=O)(=O)CCNCc1ccc(-c2ccc3ncnc(Nc4ccc(OCc5cccc(F)c5)c(Cl)c4)c3c2)o1 [Lapatinib] (partner 2 µM)", 0.643],
  ["O=c1cc(-c2cccc3c2Sc2ccccc2S3)oc(N2CCOCC2)c1 + Cc1cc(Nc2cc(N3CCN(C)CC3)nc(Sc3ccc(NC(=O)C4CC4)cc3)n2)n[nH]1 [Tozasertib] (partner 0.1 µM)", 0.325],
  ["O=c1cc(-c2cccc3c2Sc2ccccc2S3)oc(N2CCOCC2)c1 + CC(=O)c1c(C)c2cnc(Nc3ccc(N4CCNCC4)cn3)nc2n(C2CCCC2)c1=O [Palbociclib] (partner 0.5 µM)", 0.311],
  ["O=c1cc(-c2cccc3c2Sc2ccccc2S3)oc(N2CCOCC2)c1 + O=C(CCCCCCC(=O)Nc1ccccc1)NO [Vorinostat] (partner 1 µM)", 0.541],
  ["O=c1cc(-c2cccc3c2Sc2ccccc2S3)oc(N2CCOCC2)c1 + COc1cc2c(Oc3ccc(NC(=O)C4(C(=O)Nc5ccc(F)cc5)CC4)cc3F)ccnc2cc1OCCCN1CCOCC1 [Foretinib] (partner 0.25 µM)", 0.562]
]}

// map O=c1cc(-c2cccc3c2Sc2ccccc2S3)oc(N2CCOCC2)c1 + Cc1nc(NC(=O)N2CCC[C@H]2C(N)=O)sc1-c1ccnc(C(C)(C)C(F)(F)F)c1 [Alpelisib] (partner 2 µM) to recorded relative viability (system: NCI-H1793)
0.692

// repeat for COc1nc(C)cnc1NS(=O)(=O)c1cccnc1-c1ccc(-c2nnco2)cc1 [Zibotentan] + Cc1cc(Nc2cc(N3CCN(C)CC3)nc(Sc3ccc(NC(=O)C4CC4)cc3)n2)n[nH]1 [Tozasertib] (partner 0.1 µM) and report
0.273

// repeat for O=c1cc(-c2cccc3c2Sc2ccccc2S3)oc(N2CCOCC2)c1 + CCNC(=O)c1noc(-c2cc(C(C)C)c(O)cc2O)c1-c1ccc(CN2CCOCC2)cc1 [Luminespib] (partner 0.01 µM) and report
0.231

// repeat for COc1nc(C)cnc1NS(=O)(=O)c1cccnc1-c1ccc(-c2nnco2)cc1 [Zibotentan] + Nc1ncn([C@H]2C[C@H](O)[C@@H](CO)O2)c(=O)n1 [Decitabine] (partner 2 µM) and report
0.528

// repeat for COc1nc(C)cnc1NS(=O)(=O)c1cccnc1-c1ccc(-c2nnco2)cc1 [Zibotentan] + NC(=O)Nc1cc(-c2cccc(F)c2)sc1C(=O)N[C@H]1CCCNC1 [AZD7762] (partner 0.2 µM) and report
0.37
